Hello, the source for this data is PubChem BioAssay AID2060908, in case you need it.

Recorded measurements of viability, T/C, one per entry
Tested on: 186277-243-T-J2-PDC complex spheroids, viability
Assay: Anticancer human tumor 186277-243-T-J2-PDC patient-derived colon adenocarcinoma cell line growth inhibition [RAS]
Details: second compound 0.01 µM; first compound 0.0316 µM; active compounds read low
Just the number please, in %, no unit attached.

CC(C)NCC(C(=O)N1CCN(c2ncnc3c2C(C)CC3O)CC1)c1ccc(Cl)cc1 (stereo not given) + C=CC(=O)N1CCN(c2nc(OCC3CCCN3C)nc3c(F)c(-c4nc(N)cc(C)c4C(F)(F)F)c(Cl)cc23)C(C)C1 : 78.7
CC1(O)CCCC1n1c(=O)c(C(F)F)cc2cnc(NC3CCN(S(C)(=O)=O)CC3)nc21 (stereo not given) + C=CC(=O)N1CCN(c2nc(OCC3CCCN3C)nc3c(F)c(-c4nc(N)cc(C)c4C(F)(F)F)c(Cl)cc23)C(C)C1 : 92.8
CC(C)n1nc(-c2ccc3oc(N)nc3c2)c2c(N)ncnc21 + C=CC(=O)N1CCN(c2nc(OCC3CCCN3C)nc3c(F)c(-c4nc(N)cc(C)c4C(F)(F)F)c(Cl)cc23)C(C)C1 : 77.7
CC(Nc1ccc2c(c1)OCCn1cc(N3C(=O)OCC3C(F)F)nc1-2)C(N)=O (stereo not given) + C=CC(=O)N1CCN(c2nc(OCC3CCCN3C)nc3c(F)c(-c4nc(N)cc(C)c4C(F)(F)F)c(Cl)cc23)C(C)C1 : 102

Lookup: Dear colleague, please send me the reported viability, T/C for CC(=O)OC12COC1CC(O)C1(C)C(=O)C(O)C3=C(C)C(OC(=O)C(O)C(NC(=O)OC(C)(C)C)c4ccccc4)CC(O)(C(OC(=O)c4ccccc4)C21)C3(C)C (stereo not given) + C=CC(=O)N1CCN(c2nc(OCC3CCCN3C)nc3c(F)c(-c4nc(N)cc(C)c4C(F)(F)F)c(Cl)cc23)C(C)C1 when you can.
Found: 8.84

====

Recorded measurements of viability, T/C, one per entry
System: 186277-243-T-J2-PDC complex spheroids, viability
Assay: Anticancer human tumor 186277-243-T-J2-PDC cell line growth inhibition [RAS];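 also: spheroids exposed to compounds for 7 days before viability read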
Conditions: second compound 0.1 µM; first compound 1 µM; active compounds read low
Just the number please, in %, no unit attached.

CC(=O)OC12COC1CC(O)C1(C)C(=O)C(O)C3=C(C)C(OC(=O)C(O)C(NC(=O)OC(C)(C)C)c4ccccc4)CC(O)(C(OC(=O)c4ccccc4)C21)C3(C)C (centres undefined) + C#Cc1c(F)ccc2cc(O)cc(-c3ncc4c(N5CC6CCC(C5)N6)nc(OCC56CCCN5CC(F)C6)nc4c3F)c12 : 4.03

Lookup: Dear colleague, please send me the reported viability, T/C for O=C(c1ccc(F)c(F)c1Nc1ccc(I)cc1F)N1CC(O)([C@@H]2CCCCN2)C1 + C=CC(=O)N1CCN(c2nc(OCC3CCCN3C)nc3c(F)c(-c4nc(N)cc(C)c4C(F)(F)F)c(Cl)cc23)C(C)C1 when you can.
Found: 5.74

Lookup: Dear colleague, please send me the reported viability, T/C for Cc1nc(N2CCC3(CC2)COC(C)C3N)c(CO)nc1Sc1ccnc(N)c1Cl (centres undefined) + C#Cc1c(F)ccc2cc(O)cc(-c3ncc4c(N5CC6CCC(C5)N6)nc(OCC56CCCN5CC(F)C6)nc4c3F)c12 when you can.
Found: 9.03

Lookup: Dear colleague, please send me the reported viability, T/C for CC(=O)OC12COC1CC(O)C1(C)C(=O)C(O)C3=C(C)C(OC(=O)C(O)C(NC(=O)OC(C)(C)C)c4ccccc4)CC(O)(C(OC(=O)c4ccccc4)C21)C3(C)C (centres undefined) + C=CC(=O)N1CCN(c2nc(OCC3CCCN3C)nc3c(F)c(-c4nc(N)cc(C)c4C(F)(F)F)c(Cl)cc23)C(C)C1 when you can.
Found: 7.09
